Target: Beta-adrenergic receptor kinase 1 (Homo sapiens, UniProt P25098, S670A)
Sequence (P25098 whole entry S670A): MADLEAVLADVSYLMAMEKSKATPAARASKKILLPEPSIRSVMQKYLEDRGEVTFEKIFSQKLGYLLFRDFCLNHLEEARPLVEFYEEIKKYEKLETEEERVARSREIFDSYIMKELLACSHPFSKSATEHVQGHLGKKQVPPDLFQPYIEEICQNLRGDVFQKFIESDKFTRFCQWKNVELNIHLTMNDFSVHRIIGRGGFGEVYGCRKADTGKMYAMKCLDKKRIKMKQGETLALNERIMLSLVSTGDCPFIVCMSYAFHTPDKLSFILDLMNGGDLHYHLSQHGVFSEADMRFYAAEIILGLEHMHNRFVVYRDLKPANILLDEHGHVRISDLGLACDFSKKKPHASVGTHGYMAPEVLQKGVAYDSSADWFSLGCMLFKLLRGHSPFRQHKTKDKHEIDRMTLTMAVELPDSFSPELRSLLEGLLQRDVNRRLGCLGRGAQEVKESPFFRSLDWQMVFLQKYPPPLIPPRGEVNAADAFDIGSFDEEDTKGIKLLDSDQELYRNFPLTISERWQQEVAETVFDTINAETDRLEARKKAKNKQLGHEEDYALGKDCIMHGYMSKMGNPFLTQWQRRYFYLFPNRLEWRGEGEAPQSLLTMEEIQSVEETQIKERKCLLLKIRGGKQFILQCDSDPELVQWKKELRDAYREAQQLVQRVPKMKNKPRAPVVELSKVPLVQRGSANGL
Experiment: Inhibition of human GRK2 S670A mutant assessed as decrease in phosphorylation of light-activated bovine rod outer segments after 5 mins by SDS-PAGE analysis
metric: pIC50
// pIC50 is dimensionless: -log10 of concentration (M)

The molecule listed as O=C1NCc2ccc(OC[C@@H]3CNCC[C@H]3c3ccc(F)cc3)cc21 shows pIC50 equal to 5.20

====

Target: Beta-adrenergic receptor kinase 1 (Bos taurus, UniProt P21146)
Sequence (P21146 whole entry): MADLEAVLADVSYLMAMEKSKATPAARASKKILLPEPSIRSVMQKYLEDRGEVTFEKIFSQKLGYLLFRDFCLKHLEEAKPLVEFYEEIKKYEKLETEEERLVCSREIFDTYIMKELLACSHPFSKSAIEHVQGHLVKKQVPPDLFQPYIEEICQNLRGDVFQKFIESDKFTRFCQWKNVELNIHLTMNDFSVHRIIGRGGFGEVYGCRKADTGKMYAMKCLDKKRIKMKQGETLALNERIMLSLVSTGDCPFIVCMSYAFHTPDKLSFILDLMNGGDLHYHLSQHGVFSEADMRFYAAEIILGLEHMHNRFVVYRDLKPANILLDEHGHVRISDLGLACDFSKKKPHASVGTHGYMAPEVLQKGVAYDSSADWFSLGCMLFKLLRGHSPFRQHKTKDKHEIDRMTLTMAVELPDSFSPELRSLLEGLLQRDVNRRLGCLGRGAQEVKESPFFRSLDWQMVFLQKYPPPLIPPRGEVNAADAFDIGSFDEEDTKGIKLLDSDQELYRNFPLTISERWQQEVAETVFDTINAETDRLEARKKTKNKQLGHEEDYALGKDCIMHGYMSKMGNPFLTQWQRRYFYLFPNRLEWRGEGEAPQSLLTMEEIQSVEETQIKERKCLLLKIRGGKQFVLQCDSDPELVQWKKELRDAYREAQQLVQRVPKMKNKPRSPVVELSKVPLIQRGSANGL
Test: Inhibition of bovine cerebral cortex GRK2 assessed as decrease in rhodopsin phosphorylation by SDS-PAGE analysis
# IC50 annotations
Report the figure in mM without appending any unit label.

• O=S(=O)(O)O[C@H]1[C@H](OS(=O)(=O)O)[C@@H](OS(=O)(=O)O)[C@H](OS(=O)(=O)O)[C@@H](OS(=O)(=O)O)[C@H]1OS(=O)(=O)O = 0.0135

Now consider a different compound.
Input O=P(O)(O)O[C@@H]1[C@H](O)[C@H](O)[C@@H](O)[C@H](O)[C@H]1O . Output IC50: 3.6

====

Experiment: Inhibition of PKA (unknown origin) using LRRASLG as substrate incubated for 30 mins by ADP-Glo assay
Parameters: species or system Homo sapiens
metric: IC50 (µM)
# number only, unit µM dropped from output

* CC1=C(C(=O)Nc2ccc3[nH]ncc3c2)C(c2ccc(F)cc2)N=C(c2ccc(C(F)(F)F)cc2)N1 (stereo unspecified) | 200
* CC1=C(C(=O)Nc2ccc3[nH]ncc3c2)C(c2ccc3ccccc3c2)CC(=O)N1 (stereo unspecified) [GSK-270822A] | 50.1
* CC1=C(C(=O)Nc2cc(Cl)c3[nH]ncc3c2)C(c2ccc(C(F)(F)F)cc2)CC(=O)N1 (stereo unspecified) [GSK-466317A] | 12.6

Please fill in: IC50 reported for CC1=C(C(=O)Nc2ccc3[nH]ncc3c2)C(c2ccc(Cl)c(Cl)c2)CC(=O)N1 (stereo unspecified) [GSK-299115A] = 63.1
